Data origin: patent US5703056A

- measurement description: Calculated permeability surface area product (PS) of the cerebral capillaries
- Parameters: unit not given here
- test parameters: calculated from published log P and MW: log(PS)=5.2+log(P·Dm)
Collected PS+ values appear next to each entry.
Output: the number by itself.

Can you share its PS+? I mean this molecule: O=c1[nH]c(=O)n([C@H]2C[C@H](O)[C@@H](CO)O2)cc1I
0.14

Can you share its PS+? I mean this molecule: CCc1cn([C@@H]2O[C@H](CO)[C@@H](O)[C@@H]2F)c(=O)[nH]c1=O
0.31

Can you share its PS+? I mean this molecule: O=c1ccn([C@H]2C[C@H](O)[C@@H](CO)O2)c(=O)[nH]1
0.03

====

- measurement description: Quantitative autoradiography of 2-[14C]-FIAU in i.c. RG2TK+ and RG2 tumors
- Type: in vivo, rat
- test parameters: rat, intracerebral tumor, iv, 50 uCi, i.c. RG2TK+ tumor, 24 h after 50 uCi 2-[14C]-FIAU i.v.; read-out: mean activity
readout: tissue uptake at 24 h

Can you share its tissue uptake at 24 h? I mean this compound: O=c1[nH]c(=O)n([C@@H]2O[C@H](CO)[C@@H](O)[C@@H]2F)cc1I [FIAU]
0.18 %ID/g

====

- measurement description: Quantitative autoradiography of 2-[14C]-FIAU in i.c. RG2TK+ and RG2 tumors
- Type: in vivo, rat
- test parameters: rat, brain, iv, 50 uCi, 24 h, level of detection on the autoradiograms; read-out: adjacent brain activity
readout: tissue uptake at 24 h

Can you share its tissue uptake at 24 h? I mean this molecule: O=c1[nH]c(=O)n([C@@H]2O[C@H](CO)[C@@H](O)[C@@H]2F)cc1I
< 0.005 %ID/g

====

Collected PS* values appear next to each entry.
- measurement description: Calculated permeability surface area product (PS) of the cerebral capillaries
- Parameters: unit not given here
- test parameters: calculated from measured log P and MW: log(PS)=5.2+log(P·Dm)
Output: the number by itself.

# compound, value measured
data = [
    ("O=c1[nH]c(=O)n([C@@H]2O[C@H](CO)[C@@H](O)[C@H]2F)cc1F [FFRU]", 0.02),
    ("O=c1[nH]c(=O)n([C@@H]2O[C@H](CO)[C@@H](O)[C@H]2F)cc1C=CI [FIVRU]", 13.03),
    ("O=c1[nH]c(=O)n([C@H]2C[C@H](O)[C@@H](CO)O2)cc1F [5-FUdR]", 0.03),
]

Can you share its PS*? I mean this compound: O=c1ccn([C@H]2C[C@H](O)[C@@H](CO)O2)c(=O)[nH]1 [UdR, 2-deoxyuridine]
0.05

Can you share its PS*? I mean this compound: O=c1[nH]c(=O)n([C@@H]2O[C@H](CO)[C@@H](O)[C@H]2F)cc1I [FIRU]
0.45

====

- measurement description: Quantitative autoradiography of 2-[14C]-FIAU after in vivo transfection of RG2 tumors by the STK retrovirus
- Design: species or system rat
- test parameters: rat, iv, 50 uCi, in vivo transduced RG2(TK+) tumor, prior to rinsing, read-out: mean activity
readout: tissue uptake at 24 h (%ID/g)
Hi! Could you send only the number? It should be in %ID/g, unit omitted.

Can you share its tissue uptake at 24 h? I mean this compound: O=c1[nH]c(=O)n([C@@H]2O[C@H](CO)[C@@H](O)[C@@H]2F)cc1I [FIAU]
0.34

====

- measurement description: Quantitative autoradiography of 2-[14C]-FIAU after in vivo transfection of RG2 tumors by the STK retrovirus
- Set-up: species or system rat
- test parameters: rat, iv, 50 uCi, gp-STK-A2 vector-producer cell inoculated area, prior to rinsing, read-out: mean activity
readout: tissue uptake at 24 h (%ID/g)
Hi! Could you send only the number? It should be in %ID/g, unit omitted.

Can you share its tissue uptake at 24 h? I mean this compound: O=c1[nH]c(=O)n([C@@H]2O[C@H](CO)[C@@H](O)[C@@H]2F)cc1I [FIAU]
0.028

====

- measurement description: Quantitative autoradiography of 2-[14C]-FIAU after in vivo transfection of RG2 tumors by the STK retrovirus
- Set-up: species or system rat
- test parameters: rat, iv, 50 uCi, in vivo transduced RG2(TK+) tumor, read-out: peak activity
readout: tissue uptake at 24 h (%ID/g)
Hi! Could you send only the number? It should be in %ID/g, unit omitted.

Can you share its tissue uptake at 24 h? I mean this compound: O=c1[nH]c(=O)n([C@@H]2O[C@H](CO)[C@@H](O)[C@@H]2F)cc1I
0.96

====

Collected logP values appear next to each entry.
- measurement description: physchem
- Type: physicochemical
- test parameters: octanol/water

# compound, logP
data = [
    ("O=c1[nH]c(=O)n([C@@H]2O[C@H](CO)[C@@H](O)[C@H]2F)cc1C=CI [FIVRU]", 1.21),
    ("O=c1[nH]c(=O)n([C@H]2C[C@H](O)[C@@H](CO)O2)cc1I [IUdR, 5-iodo-2'-deoxy-uridine]", -0.089),
    ("O=c1ccn([C@H]2C[C@H](O)[C@@H](CO)O2)c(=O)[nH]1 [UdR, 2-deoxyuridine]", -0.131),
    ("Cc1cn([C@H]2C[C@H](O)[C@@H](CO)O2)c(=O)[nH]c1=O [TdR, thymidine]", -0.8),
    ("O=c1[nH]c(=O)n([C@H]2C[C@H](O)[C@@H](CO)O2)cc1F [5-FUdR]", -1.52),
    ("CC(C)(N)C(=O)O [AIB]", -2.48),
]

Can you share its logP? I mean this compound: O=C(O)CN(CCN(CC(=O)O)CC(=O)O)CCN(CC(=O)O)CC(=O)O [DTPA]
-3.89

Can you share its logP? I mean this compound: O=c1[nH]c(=O)n([C@@H]2O[C@H](CO)[C@@H](O)[C@@H]2F)cc1F [FFAU]
-1.09

====

Collected PS+ values appear next to each entry.
- measurement description: Calculated permeability surface area product (PS) of the cerebral capillaries
- Parameters: unit not given here
- test parameters: calculated from published log P and MW: log(PS)=5.2+log(P·Dm)

# compound, PS+
data = [
    ("O=c1[nH]c(=O)n([C@@H]2O[C@H](CO)[C@@H](O)[C@@H]2F)cc1I [FIAU]", 0.59),
    ("O=C(O)CN(CCN(CC(=O)O)CC(=O)O)CCN(CC(=O)O)CC(=O)O [DTPA]", 0.00009),
    ("O=c1[nH]c(=O)n([C@H]2C[C@H](O)[C@@H](CO)O2)cc1F [5-FUdR]", 0.03),
]

Shift focus to the following entry.
Can you share its PS+? I mean this compound: CC(C)(N)C(=O)O [AIB]
0.00052

====

Collected PS* values appear next to each entry.
- measurement description: Calculated permeability surface area product (PS) of the cerebral capillaries
- Design: unit not given here
- test parameters: calculated from measured log P and MW: log(PS)=5.2+log(P·Dm)
Output: the number by itself.

Check out these entries, answers already filled in.
# molecule, PS*
measured = [
    ("O=c1[nH]c(=O)n([C@H]2C[C@H](O)[C@@H](CO)O2)cc1I [IUdR, 5-iodo-2'-deoxy-uridine]", 0.11),
    ("O=c1[nH]c(=O)n([C@H]2C[C@H](O)[C@@H](CO)O2)cc1/C=C/I [5-IVdU]", 10.29),
    ("O=c1[nH]c(=O)n([C@@H]2O[C@H](CO)[C@@H](O)[C@@H]2F)cc1F [FFAU]", 0.08),
]

Shift focus to the following entry.
Can you share its PS*? I mean this molecule: O=c1[nH]c(=O)n([C@@H]2O[C@H](CO)[C@@H](O)[C@@H]2F)cc1I [FIAU]
0.59
